Recorded measurements of Activity, one per entry
Target: Protein cereblon/Receptor-type tyrosine-protein kinase FLT3 (Homo sapiens, UniProt P36888+Q96SW2)
Assay: PROTAC activity at CRBN/FLT3 in human MV4-11 cells harboring FLT3-ITD mutation assessed as induction of FLT3 degradation at 10 nM incubated for 24 hrs by immunoblotting analysis relative to control
Format: cell-based
Sequence (P36888 27-993 limits assumed): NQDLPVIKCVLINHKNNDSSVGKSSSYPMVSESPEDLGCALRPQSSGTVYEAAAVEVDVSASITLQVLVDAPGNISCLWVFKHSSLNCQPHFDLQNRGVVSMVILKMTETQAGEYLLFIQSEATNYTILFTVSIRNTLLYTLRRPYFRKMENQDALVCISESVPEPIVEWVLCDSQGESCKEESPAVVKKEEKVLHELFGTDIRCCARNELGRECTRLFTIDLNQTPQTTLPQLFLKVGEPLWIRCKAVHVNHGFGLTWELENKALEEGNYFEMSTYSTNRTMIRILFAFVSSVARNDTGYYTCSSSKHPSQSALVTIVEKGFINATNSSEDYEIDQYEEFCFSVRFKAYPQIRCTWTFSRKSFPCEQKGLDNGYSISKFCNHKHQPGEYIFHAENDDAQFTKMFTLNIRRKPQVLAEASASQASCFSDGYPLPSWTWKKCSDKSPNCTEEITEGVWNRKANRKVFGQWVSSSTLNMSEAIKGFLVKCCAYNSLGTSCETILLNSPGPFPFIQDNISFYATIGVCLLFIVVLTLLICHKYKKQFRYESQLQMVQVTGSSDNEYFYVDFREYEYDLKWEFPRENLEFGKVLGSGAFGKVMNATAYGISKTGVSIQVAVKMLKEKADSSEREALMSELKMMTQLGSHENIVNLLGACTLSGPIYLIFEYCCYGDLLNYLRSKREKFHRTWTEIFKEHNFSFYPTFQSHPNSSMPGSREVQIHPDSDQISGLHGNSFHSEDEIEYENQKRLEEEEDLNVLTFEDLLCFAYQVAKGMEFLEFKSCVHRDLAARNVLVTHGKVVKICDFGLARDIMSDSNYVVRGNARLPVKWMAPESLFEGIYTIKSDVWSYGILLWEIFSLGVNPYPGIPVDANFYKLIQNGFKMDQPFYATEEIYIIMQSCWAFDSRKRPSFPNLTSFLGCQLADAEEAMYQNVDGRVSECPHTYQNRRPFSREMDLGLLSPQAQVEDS
Sequence (Q96SW2 whole entry partner): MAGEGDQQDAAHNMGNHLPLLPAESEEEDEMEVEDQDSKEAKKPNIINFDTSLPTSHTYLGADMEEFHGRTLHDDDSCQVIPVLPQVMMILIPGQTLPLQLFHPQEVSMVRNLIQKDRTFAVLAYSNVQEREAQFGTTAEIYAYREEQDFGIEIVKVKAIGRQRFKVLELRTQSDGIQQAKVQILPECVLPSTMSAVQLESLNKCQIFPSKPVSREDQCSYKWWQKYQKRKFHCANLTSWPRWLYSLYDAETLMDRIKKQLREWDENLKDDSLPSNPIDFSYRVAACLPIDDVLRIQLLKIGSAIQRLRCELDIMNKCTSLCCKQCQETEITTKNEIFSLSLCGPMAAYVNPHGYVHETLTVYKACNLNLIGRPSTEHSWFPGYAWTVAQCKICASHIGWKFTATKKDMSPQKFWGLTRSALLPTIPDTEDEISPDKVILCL
outcome.measure: Activity

INSERT INTO assay_data (molecule, experimental_result) VALUES
  ('CCc1nc(C(N)=O)c(Nc2ccc(N3CCC(N4CCN(C(=O)CCCCCCCCCNc5cccc6c5C(=O)N(C5CCC(=O)NC5=O)C6=O)CC4)CC3)c(OC)c2)nc1NC1CCOCC1 (stereo unspecified)', '0%'),
  ('CCc1nc(C(N)=O)c(Nc2ccc(N3CCC(N4CCN(C(=O)CCCCCNc5ccc6c(c5)C(=O)N(C5CCC(=O)NC5=O)C6=O)CC4)CC3)c(OC)c2)nc1NC1CCOCC1 (stereo unspecified)', '52%'),
  ('CCc1nc(C(N)=O)c(Nc2ccc(N3CCC(N4CCN(C(=O)CCCCCCCNc5cccc6c5C(=O)N(C5CCC(=O)NC5=O)C6=O)CC4)CC3)c(OC)c2)nc1NC1CCOCC1 (stereo unspecified)', '50%'),
  ('CCc1nc(C(N)=O)c(Nc2ccc(N3CCC(N4CCN(C(=O)COc5cccc6c5C(=O)N(C5CCC(=O)NC5=O)C6=O)CC4)CC3)c(OC)c2)nc1NC1CCOCC1 (stereo unspecified)', '58%'),
  ('CCc1nc(C(N)=O)c(Nc2ccc(N3CCC(N4CCN(C(=O)CCCCCNc5cccc6c5C(=O)N(C5CCC(=O)NC5=O)C6=O)CC4)CC3)c(OC)c2)nc1NC1CCOCC1 (stereo unspecified)', '66%'),
  ('CCc1nc(C(N)=O)c(Nc2ccc(N3CCC(N4CCN(C(=O)COc5ccc6c(c5)C(=O)N(C5CCC(=O)NC5=O)C6=O)CC4)CC3)c(OC)c2)nc1NC1CCOCC1 (stereo unspecified)', '0%');

----------
Target: Protein cereblon/Receptor-type tyrosine-protein kinase FLT3 (Homo sapiens, UniProt P36888+Q96SW2)
Assay: PROTAC activity at CRBN/FLT3 in human MV4-11 cells harboring FLT3-ITD mutation assessed as induction of FLT3 degradation incubated for 24 hrs by immunoblotting analysis
Type: cell-based
Classify: fulfilled when DC50 is strictly less than 1 nM; not fulfilled when DC50 is not.

INSERT INTO measurements (compound, label_class) VALUES
  ('CCc1nc(C(N)=O)c(Nc2ccc(N3CCC(N4CCN(C(=O)COc5cccc6c5CN(C5CCC(=O)NC5=O)C6=O)CC4)CC3)c(OC)c2)nc1NC1CCOCC1 (stereo unspecified)', 'fulfilled'),
  ('CCc1nc(C(N)=O)c(Nc2ccc(N3CCC(N4CCN(C(=O)COc5cccc6c5CN(C5CCC(=O)N(C)C5=O)C6=O)CC4)CC3)c(OC)c2)nc1NC1CCOCC1 (stereo unspecified)', 'not fulfilled'),
  ('CCc1nc(C(N)=O)c(Nc2ccc(N3CCC(N4CCN(C(=O)COc5cccc6c5C(=O)N(C5CCC(=O)NC5=O)C6=O)CC4)CC3)c(OC)c2)nc1NC1CCOCC1 (stereo unspecified)', 'not fulfilled'),
  ('CCc1nc(C(N)=O)c(Nc2ccc(N3CCC(N4CCN(C(=O)CCCCCNc5cccc6c5C(=O)N(C5CCC(=O)NC5=O)C6=O)CC4)CC3)c(OC)c2)nc1NC1CCOCC1 (stereo unspecified)', 'not fulfilled');
